- assay-target: Voltage-gated N-type calcium channel alpha-1B subunit/Amyloid beta A4 precursor protein-binding family A member 1 (Homo sapiens, UniProt Q00975+Q02410)
- Sequence (Q00975 whole entry): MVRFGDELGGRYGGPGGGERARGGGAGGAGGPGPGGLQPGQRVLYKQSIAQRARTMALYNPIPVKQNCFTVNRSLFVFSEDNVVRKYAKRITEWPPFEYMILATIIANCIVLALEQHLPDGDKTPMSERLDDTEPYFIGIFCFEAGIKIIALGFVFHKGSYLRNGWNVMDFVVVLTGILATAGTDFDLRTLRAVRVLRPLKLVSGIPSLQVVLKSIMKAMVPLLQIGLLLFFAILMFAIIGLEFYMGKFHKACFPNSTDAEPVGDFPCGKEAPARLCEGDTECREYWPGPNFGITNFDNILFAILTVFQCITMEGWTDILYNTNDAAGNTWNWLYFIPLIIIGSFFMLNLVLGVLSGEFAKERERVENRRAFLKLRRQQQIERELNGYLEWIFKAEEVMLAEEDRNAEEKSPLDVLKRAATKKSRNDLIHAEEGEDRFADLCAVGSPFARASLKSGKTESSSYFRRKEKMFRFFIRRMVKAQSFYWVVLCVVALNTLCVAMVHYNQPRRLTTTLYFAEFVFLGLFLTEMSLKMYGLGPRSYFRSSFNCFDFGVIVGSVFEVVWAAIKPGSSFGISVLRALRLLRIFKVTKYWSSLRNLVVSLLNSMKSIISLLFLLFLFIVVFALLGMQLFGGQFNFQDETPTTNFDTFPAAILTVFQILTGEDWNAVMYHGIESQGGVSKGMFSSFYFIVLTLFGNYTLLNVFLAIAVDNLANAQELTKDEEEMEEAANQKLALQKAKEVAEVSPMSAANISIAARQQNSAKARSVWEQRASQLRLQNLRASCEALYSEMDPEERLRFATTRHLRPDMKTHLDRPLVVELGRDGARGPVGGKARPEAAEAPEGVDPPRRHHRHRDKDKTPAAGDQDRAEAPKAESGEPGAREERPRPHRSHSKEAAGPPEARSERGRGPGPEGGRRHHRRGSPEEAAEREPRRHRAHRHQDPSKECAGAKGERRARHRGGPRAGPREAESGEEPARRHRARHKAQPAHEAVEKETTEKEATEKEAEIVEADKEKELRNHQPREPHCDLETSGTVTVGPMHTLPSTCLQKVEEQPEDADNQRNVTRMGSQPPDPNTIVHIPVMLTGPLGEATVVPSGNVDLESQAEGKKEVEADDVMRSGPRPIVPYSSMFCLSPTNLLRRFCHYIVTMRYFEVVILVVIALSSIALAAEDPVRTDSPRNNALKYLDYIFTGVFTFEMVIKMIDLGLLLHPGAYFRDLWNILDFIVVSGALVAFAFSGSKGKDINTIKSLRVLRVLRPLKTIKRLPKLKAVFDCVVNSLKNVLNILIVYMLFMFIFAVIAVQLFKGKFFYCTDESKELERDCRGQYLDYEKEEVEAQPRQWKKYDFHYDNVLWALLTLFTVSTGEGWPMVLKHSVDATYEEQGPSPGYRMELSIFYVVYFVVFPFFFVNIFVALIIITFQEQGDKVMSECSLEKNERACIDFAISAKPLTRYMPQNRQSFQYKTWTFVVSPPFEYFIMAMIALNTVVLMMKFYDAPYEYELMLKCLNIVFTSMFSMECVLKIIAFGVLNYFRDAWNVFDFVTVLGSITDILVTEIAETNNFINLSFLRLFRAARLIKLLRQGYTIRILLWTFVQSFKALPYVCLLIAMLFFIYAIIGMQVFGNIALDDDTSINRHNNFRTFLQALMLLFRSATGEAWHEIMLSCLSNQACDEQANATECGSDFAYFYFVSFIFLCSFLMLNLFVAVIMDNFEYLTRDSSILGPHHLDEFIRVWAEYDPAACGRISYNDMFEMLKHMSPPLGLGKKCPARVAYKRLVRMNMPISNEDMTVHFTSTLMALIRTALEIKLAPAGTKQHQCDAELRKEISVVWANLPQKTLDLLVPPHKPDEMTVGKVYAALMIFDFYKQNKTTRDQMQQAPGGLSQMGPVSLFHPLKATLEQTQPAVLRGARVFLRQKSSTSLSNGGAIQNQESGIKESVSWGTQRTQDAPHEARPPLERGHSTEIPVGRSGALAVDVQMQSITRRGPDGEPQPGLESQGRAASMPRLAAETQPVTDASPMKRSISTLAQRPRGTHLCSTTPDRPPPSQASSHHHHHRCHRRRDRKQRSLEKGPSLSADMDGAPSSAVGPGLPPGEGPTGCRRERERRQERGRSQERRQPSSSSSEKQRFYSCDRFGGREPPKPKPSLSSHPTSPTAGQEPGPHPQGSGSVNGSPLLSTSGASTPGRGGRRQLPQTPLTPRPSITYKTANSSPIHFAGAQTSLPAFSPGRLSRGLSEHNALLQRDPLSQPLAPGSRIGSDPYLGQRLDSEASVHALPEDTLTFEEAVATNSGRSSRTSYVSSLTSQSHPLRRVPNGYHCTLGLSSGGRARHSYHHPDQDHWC
- Sequence (Q02410 whole entry): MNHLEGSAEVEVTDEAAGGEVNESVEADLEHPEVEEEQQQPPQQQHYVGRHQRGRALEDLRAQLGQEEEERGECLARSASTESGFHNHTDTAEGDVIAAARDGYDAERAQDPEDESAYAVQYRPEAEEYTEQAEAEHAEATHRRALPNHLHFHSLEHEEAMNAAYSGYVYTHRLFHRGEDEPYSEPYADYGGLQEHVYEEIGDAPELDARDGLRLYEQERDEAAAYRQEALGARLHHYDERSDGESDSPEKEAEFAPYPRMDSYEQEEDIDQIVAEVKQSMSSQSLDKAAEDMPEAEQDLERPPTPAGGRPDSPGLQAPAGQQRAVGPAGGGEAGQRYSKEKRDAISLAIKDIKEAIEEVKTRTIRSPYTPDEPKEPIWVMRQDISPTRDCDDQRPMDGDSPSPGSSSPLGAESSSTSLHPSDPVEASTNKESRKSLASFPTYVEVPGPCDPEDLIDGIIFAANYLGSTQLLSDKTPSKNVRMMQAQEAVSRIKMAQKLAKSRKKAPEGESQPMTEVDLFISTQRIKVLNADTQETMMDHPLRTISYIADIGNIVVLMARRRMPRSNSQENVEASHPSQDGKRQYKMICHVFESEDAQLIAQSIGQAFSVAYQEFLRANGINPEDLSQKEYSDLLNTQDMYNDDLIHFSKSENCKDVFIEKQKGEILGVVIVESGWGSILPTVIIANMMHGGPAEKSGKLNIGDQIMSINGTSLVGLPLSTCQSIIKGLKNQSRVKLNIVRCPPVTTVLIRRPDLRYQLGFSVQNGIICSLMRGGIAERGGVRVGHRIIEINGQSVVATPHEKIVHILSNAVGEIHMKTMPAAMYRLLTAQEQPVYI
- Format: protein assay
Activity calls are given as the source filed them.
Pick from active, inactive when you respond.

Answered cases to consult:
Can you look up the reported call for `COc1ccc(CC(=O)Nc2ccc(-c3nnc(-c4ccccc4)o3)cc2)cc1` for me? inactive

Can you look up the reported call for `Clc1nss/c1=N\c1ccccc1` for me? active

Can you look up the reported call for `O=C(CSc1ccc(Cl)cc1)Nc1cccc(-c2nc3ccccc3[nH]2)c1` for me? active

Further cases:
Can you look up the reported call for `NC1=CC(=O)c2cccc3cccc1c23` for me? inactive

Can you look up the reported call for `COc1cc(/C=C2\SC(=O)N(c3ccc(Cl)cc3)C2=O)cc([N+](=O)[O-])c1O` for me? inactive

Cited source: ChEMBL document CHEMBL1201862
